system: Staphylococcus aureus (ATCC 29213); assay: MBC by sub-culture from wells without growth; format: cell-based; conditions: ATCC29213, S.aureus
Recorded metric: MBC

Answered examples (3):
COc1ccc(/C=C(\C#N)c2cc(C(F)(F)F)cc(C(F)(F)F)c2)cc1 | 12.5 mg/mL
COc1ccc(/C=C(\C#N)c2ccc(F)cc2)cc1 | 25 mg/mL
CC1(C)S[C@@H]2[C@H](NC(=O)[C@H](N)c3ccccc3)C(=O)N2[C@H]1C(=O)O [Ampicillin, reference compound] | 0.25 mg/mL

Consider now this further compound.
What does the record list as MBC for `COc1ccc(C=C(C#N)c2ccccc2)cc1` ?
25 mg/mL
